The reported numbers originate from patent US10669240B2.

Target: UniProtKB Q13627
Assay: DYRK1A activity Tau assay: pSer396 Tau in SH-SY5Y cells by ELISA / western blot
Conditions: overnight (16-18 h) exposure
Attribute Measured: EC50 (nM)
Could you give me the number in nM? Just the number is fine.

Task: Please report EC50 for the following compound: N[C@H]1CC[C@H](NC(=O)c2n[nH]c3ccc(-c4cccnc4)cc23)CC1
Output: 2

Task: Please report EC50 for the following compound: Cc1ncc(NC(=O)c2n[nH]c3ccc(-c4cncc(CN5CCCCC5)c4)cc23)cn1
Output: 1

Task: Please report EC50 for the following compound: O=C(NC1CC1)c1n[nH]c2ccc(-c3cc(F)cc(CN4CCCCC4)c3)cc12
Output: 36

Task: Please report EC50 for the following compound: CC(C)OCCCNC(=O)c1n[nH]c2ccc(-c3cccc(F)c3F)cc12
Output: 263

----------
Target: DYRK1A (Homo sapiens (Human), UniProt Q13627)
Test: DYRK1A activity Tau assay: pSer396 Tau in SH-SY5Y cells by ELISA / western blot
Settings: overnight (16-18 h) exposure
pEC50: −log10 of the molar value.
Decide using pEC50: a value greater than or equal to 7 is Y, a smaller one is N.

Solved entries (count: 5):
Task: Entry CC(C)NC(=O)c1n[nH]c2ccc(-c3cccc(F)c3F)cc12 : is its pEC50 no less than 7?
Output: N

Task: Entry O=C(NCc1cc(F)cc(F)c1)c1n[nH]c2ccc(-c3cncc(CN4CCCCC4)c3)cc12 : is its pEC50 no less than 7?
Output: Y

Task: Entry CCN(CC)Cc1cncc(-c2ccc3[nH]nc(C(=O)NC(C)(C)C)c3c2)c1 : is its pEC50 no less than 7?
Output: N

Task: Entry CC(C)NC(=O)c1n[nH]c2cc(F)c(-c3cncc(F)c3)cc12 : is its pEC50 no less than 7?
Output: Y

Task: Entry CC(C)NC(=O)c1n[nH]c2ccc(-c3cncc(N4CCCC4)c3)cc12 : is its pEC50 no less than 7?
Output: Y

Next:
Task: Entry CN1CCC(NC(=O)c2n[nH]c3ccc(-c4cccc(F)c4F)cc23)CC1 : is its pEC50 no less than 7?
Output: Y

----------
Target: UniProt:Q13627
Assay: DYRK1A activity Tau assay: pSer396 Tau in SH-SY5Y cells by ELISA / western blot
Conditions: overnight (16-18 h) exposure
Class (by EC50) -- lo = under 0.02 µM, med = from 0.02 µM up to 0.04 µM, hi = 0.04 µM and over

Task: Lab note: which band did CC(C)(C)NC(=O)c1n[nH]c2ccc(-c3cncc(CN4CCCCC4)c3)cc12 [Compound 1202] land in?
Output: hi

Turning to the following compound.
Task: Lab note: which band did O=C(Nc1ncc(F)cc1F)c1n[nH]c2ccc(-c3cccnc3)cc12 [Compound 46] land in?
Output: lo

----------
Target: DYRK1A (Homo sapiens (Human), UniProt Q13627)
Experiment: DYRK1A activity Tau assay: pSer396 Tau in SH-SY5Y cells by ELISA / western blot
Conditions: overnight (16-18 h) exposure
Some compounds, each annotated with its measured EC50.
Could you give me the number in nM? Just the number is fine.

Sample answers from the record:
Task: Please report EC50 for the following compound: O=C(Nc1ccc(CN2CCCC2)cc1)c1n[nH]c2ccc(-c3cncnc3)cc12
Output: 4

Task: Please report EC50 for the following compound: O=C(NC1CC1)c1n[nH]c2ccc(-c3cncc(CN4CCC4)c3)cc12
Output: 19

Field: next compound
Task: Please report EC50 for the following compound: CN1CCC(NC(=O)c2n[nH]c3ccc(-c4ccc(F)cc4)cc23)CC1
Output: 9000
